Assayed target: T1, KDM7C (PHF2) PHD-finger
T1 chain: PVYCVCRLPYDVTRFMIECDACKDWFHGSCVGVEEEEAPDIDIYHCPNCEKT
Protocol text: BLI
Bridge positions count the residues as written; N and C are the ends. Ends that are not written are not given here.
Property name: Kd

Per the record, {CH2CO}-YYLTHPYPSVFRTC (thioether N-14) [OC9, de novo cyclic peptide from mRNA display] has Kd of 1 nM
